src = paper PMC4191586

test system: PC43-10 CHO cells (express human RFC); test: Growth inhibition assay, RFC-expressing PC43-10 CHO cells; assay type: cell-based, Chinese hamster; conditions: PC43-10, 96 h, read-out: IC50 RFC PC43-10
pIC50: −log10 of the molar value.
measurement.kind: pIC50

CCC[C@H](NC(=O)c1ccc(CCCc2cc3c(=O)[nH]c(N)nc3[nH]2)s1)C(=O)O = < 6.00
Nc1nc2[nH]c(CCCc3ccc(C(=O)N[C@@H](CCCC(=O)O)C(=O)O)s3)cc2c(=O)[nH]1 = < 6.00
Nc1nc2[nH]c(CCCc3ccc(C(=O)O)s3)cc2c(=O)[nH]1 = < 6.00
Nc1nc2[nH]c(CCCc3ccc(C(=O)NCCCC(=O)O)s3)cc2c(=O)[nH]1 = < 6.00

Exercise: Assign pIC50 to the following record: Nc1nc2[nH]c(CCCc3ccc(C(=O)N[C@@H](CC(=O)O)C(=O)O)s3)cc2c(=O)[nH]1
Solution: < 6.00

* * *

This listing pairs molecules with measured pIC50.
system: D4 CHO cells (express human FRβ); assay: Growth inhibition assay, FRβ-expressing D4 CHO cells; format: cell-based, Chinese hamster; conditions: CHO, read-out: IC50 FRβ D4
pIC50: −log10 of the molar value.

CCC[C@H](NC(=O)c1ccc(CCCc2cc3c(=O)[nH]c(N)nc3[nH]2)s1)C(=O)O = < 6.00
Nc1nc2[nH]c(CCCc3ccc(C(=O)O)s3)cc2c(=O)[nH]1 = < 6.00

Then this molecule:
Exercise: Assign pIC50 to the following record: Nc1nc2[nH]c(CCCc3ccc(C(=O)NCCCC(=O)O)s3)cc2c(=O)[nH]1
Solution: < 6.00

* * *

biological target: FRα (Homo sapiens, UniProt P15328); assay: Competitive [3H]folic acid binding assay, FRα in RT16 cells; conditions: 50 nM [3H]folic acid, folic acid = 1
Sequence (P15328 25-257): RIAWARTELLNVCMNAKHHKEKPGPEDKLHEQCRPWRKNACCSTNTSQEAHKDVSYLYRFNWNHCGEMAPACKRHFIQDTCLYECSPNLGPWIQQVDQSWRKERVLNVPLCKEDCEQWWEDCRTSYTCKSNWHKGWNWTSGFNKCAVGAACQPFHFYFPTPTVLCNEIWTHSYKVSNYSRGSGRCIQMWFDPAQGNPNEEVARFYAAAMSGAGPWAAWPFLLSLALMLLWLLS
measurement.kind: relative binding affinity to FRα (in words)

Nc1nc2[nH]c(CCCc3ccc(C(=O)NCCCC(=O)O)s3)cc2c(=O)[nH]1 [Compound 12] = bound avidly to FRα
CCC[C@H](NC(=O)c1ccc(CCCc2cc3c(=O)[nH]c(N)nc3[nH]2)s1)C(=O)O [Compound 13] = bound avidly to FRα
Nc1nc2[nH]c(CCCc3ccc(C(=O)N[C@@H](CC(=O)O)C(=O)O)s3)cc2c(=O)[nH]1 [Compound 10] = bound avidly to FRα
